// reported yeast fitness for each item listed
B1: tRNA (parent)
chain: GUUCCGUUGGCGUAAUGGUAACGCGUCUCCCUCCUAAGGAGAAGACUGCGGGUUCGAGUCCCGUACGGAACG

# Variants of: B1
# METHOD_DESCRIPTION: yeast fitness relative to wild type (ratio to wild type); higher = fitter; tRNA-Arg(CCU), competitive growth, 37 C, YPD
This sample holds only a part of the variants without activity.

{"VARIANT_ANNOTATION": "C4U C5G A40G G51C U59A C61A A69U", "yeast fitness": "≤ 0.5"}
{"VARIANT_ANNOTATION": "G17A A20G C27G A36C A65U", "yeast fitness": "≤ 0.5"}
{"VARIANT_ANNOTATION": "U8A C49U A69U", "yeast fitness": 0.537}
{"VARIANT_ANNOTATION": "C5U G39C C46U C49U G56A G68C", "yeast fitness": 0.669}
{"VARIANT_ANNOTATION": "C5U C11A C66G", "yeast fitness": 0.613}
{"VARIANT_ANNOTATION": "G9C U16G C31A C60A", "yeast fitness": "≤ 0.5"}
{"VARIANT_ANNOTATION": "C11U U16A U54C", "yeast fitness": "≤ 0.5"}
